- target-system: E. coli TGT V217G (Escherichia coli, UniProt P0A847, V217G)
- test-name: Pteridine inhibition of guanine incorporation
- condition-parameters: V217G mutant; vs guanine; 20 μM tRNA, pH 7.3
reported-metric: Ki

[ask] Give the measured Ki of Nc1nc2nccnc2c(=O)[nH]1 .
[reply] 900 nM

====

- target-system: E. coli TGT C145V/T146V (Escherichia coli, UniProt P0A847, C145V/T146V)
- test-name: Pteridine inhibition of guanine incorporation
- condition-parameters: C145V/T146V mutant; vs guanine; 20 μM tRNA, pH 7.3
reported-metric: Ki (nM)
Quick reminder: number only, in nM, skip the unit.

[ask] Give the measured Ki of Nc1nc2nccnc2c(=O)[nH]1 .
[reply] 2200
